# credit: patent US7709500B2

study-target: human H1 receptor (Homo sapiens, UniProt P35367)
Construct: purchased Euroscreen SA, Brussels, Belgium ES-390-M; host or cells: recombinant CHO-K1 cells (membranes)
Sequence (P35367 whole entry): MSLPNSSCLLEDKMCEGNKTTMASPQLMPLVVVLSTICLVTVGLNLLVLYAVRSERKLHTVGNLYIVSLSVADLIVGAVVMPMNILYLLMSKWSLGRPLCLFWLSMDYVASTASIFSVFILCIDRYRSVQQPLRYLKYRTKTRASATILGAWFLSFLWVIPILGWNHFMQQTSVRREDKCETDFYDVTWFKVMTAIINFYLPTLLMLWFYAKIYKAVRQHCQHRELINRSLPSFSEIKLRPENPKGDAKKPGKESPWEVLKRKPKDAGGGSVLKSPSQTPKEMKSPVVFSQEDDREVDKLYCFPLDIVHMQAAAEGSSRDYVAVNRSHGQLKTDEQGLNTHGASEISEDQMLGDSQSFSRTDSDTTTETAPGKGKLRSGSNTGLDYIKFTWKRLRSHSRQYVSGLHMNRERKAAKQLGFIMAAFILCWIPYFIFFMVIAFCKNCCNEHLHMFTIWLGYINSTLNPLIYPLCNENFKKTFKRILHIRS
assay-remarks: Histamine H1 receptor binding, competition displacement of [3H]-pyrilamine
setup-conditions: 1 nM [3H]-pyrilamine; membranes from recombinant CHO-K1 cells expressing the human H1 receptor; read-out: H1 pKi/[1328_S] (converted)
Where a name gives a salt, the structure may show the parent alone.
parameter-measured: Ki (nM)

P: O=C(NC[C@@H](O)CN1CCC(Oc2ccc(Cl)c(Cl)c2)CC1)[C@@H](O)c1ccccc1
Q: CN(C[C@@H](O)CN1CCC(Oc2ccc(Cl)c(Cl)c2)CC1)C(=O)c1c[nH]c(=O)c2ccccc12
R: CN(C[C@@H](O)CN1CCC(Oc2ccc(Cl)c(Cl)c2)CC1)C(=O)c1n[nH]c2ccccc12
S: Cc1cc(Cl)ccc1OC1CCN(C[C@@H](O)CNC(=O)c2c[nH]c(=O)c3ccccc23)CC1 [Example 186, acetate salt]
*Q* For the compounds shown above, give the order from largest Ki to smallest. Your answer should be the labels, listed in the requested order.
*A* P, S, R, Q
